Molecular target: full-length beta-Catenin (Uniprot ID P35222) (Homo sapiens (Human)) (UniProt P35222)
Sequence (P35222 whole entry): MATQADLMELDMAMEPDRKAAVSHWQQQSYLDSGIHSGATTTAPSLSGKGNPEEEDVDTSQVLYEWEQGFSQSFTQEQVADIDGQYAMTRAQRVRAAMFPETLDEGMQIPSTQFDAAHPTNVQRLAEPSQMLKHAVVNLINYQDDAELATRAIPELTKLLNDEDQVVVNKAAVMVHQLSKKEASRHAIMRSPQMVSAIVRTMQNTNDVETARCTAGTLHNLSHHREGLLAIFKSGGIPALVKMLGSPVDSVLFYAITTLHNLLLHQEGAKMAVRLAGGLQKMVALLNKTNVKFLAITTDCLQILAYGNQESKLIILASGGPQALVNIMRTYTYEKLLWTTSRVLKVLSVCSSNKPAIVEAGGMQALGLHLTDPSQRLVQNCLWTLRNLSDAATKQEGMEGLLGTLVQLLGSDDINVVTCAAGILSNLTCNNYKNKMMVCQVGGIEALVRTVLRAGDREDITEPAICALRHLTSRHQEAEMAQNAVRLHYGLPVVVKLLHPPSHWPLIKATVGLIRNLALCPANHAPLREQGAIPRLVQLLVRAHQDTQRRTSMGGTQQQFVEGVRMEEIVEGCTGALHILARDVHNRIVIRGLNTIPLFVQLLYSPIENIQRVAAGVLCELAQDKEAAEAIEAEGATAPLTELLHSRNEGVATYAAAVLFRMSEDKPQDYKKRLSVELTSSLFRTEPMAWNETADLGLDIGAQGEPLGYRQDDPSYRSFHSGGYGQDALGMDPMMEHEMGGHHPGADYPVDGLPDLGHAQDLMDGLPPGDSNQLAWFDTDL
Assay: fluorescence polarization competition; competitor 5FAM-TCF4(10-53) on full-length beta-catenin
Starred links: 1 amine or outer side, 2 acyl side, 3 side chain; linkers in the order of their positions; H or OH if unused. Positions of bridges follow the written chain, without caps; N, C: chain ends. Non-standard residues stand in square brackets, D forms with d. Primed or numbered codes have the meaning given here. PyrS2″ = (S)-3-amino-1-((pent-4-en-1-yloxy)carbonyl)pyrrolidine-3-carboxylic acid (stapling residue), C=CCCCOC(=O)N1CC[C@@](N[*:1])(C(=O)[*:2])C1; B5(25) = 2-amino-2-(pent-4-en-1-yl)hept-6-enoic acid (stitching residue), C=CCCCC(CCCC=C)(N[*:1])C(=O)[*:2]; Phe(3-COOH) = N[C@@H](Cc1cccc(C(=O)O)c1)C(=O)O; Phe(2-CF3) = N[C@@H](Cc1ccccc1C(F)(F)F)C(=O)O; Bta = N[C@@H](Cc1csc2ccccc12)C(=O)O; tBuAla = CC(C)(C)C[C@H](N)C(=O)O; R5 = C=CCCC[C@@](C)(N)C(=O)O
Below: a set of entries, each annotated with reported pIC50.
Scale for pIC50: -log10 of concentration given in mol/L; no unit attached.

[[record]]
binder = "Ac-P[R5]D[tBuAla][B5(25)]D[Phe(3-COOH)]AAFL[PyrS2″][Phe(2-CF3)][Bta]Q-NH2 (staple 5-12, 2-5) [I-2567]"
measured_result = 6.28


Could you now consider this next binder?
What value of measured pIC50 is listed for Ac-P[R5]D[tBuAla][B5(25)]D[Phe(3-COOH)]AAFL[PyrS2″][Phe(2-CF3)][Bta]Q-NH2 (staple 5-12, 2-5; also: staple -CH=CH- reduced to -CH2-CH2-) [I-2573] ?
6.63
